Ref: paper PMC6680717

IC50 values, listed per item
- target.of.assay: HDAC8 (Homo sapiens, UniProt Q9BY41)
- Sequence (Q9BY41 whole entry, canonical isoform): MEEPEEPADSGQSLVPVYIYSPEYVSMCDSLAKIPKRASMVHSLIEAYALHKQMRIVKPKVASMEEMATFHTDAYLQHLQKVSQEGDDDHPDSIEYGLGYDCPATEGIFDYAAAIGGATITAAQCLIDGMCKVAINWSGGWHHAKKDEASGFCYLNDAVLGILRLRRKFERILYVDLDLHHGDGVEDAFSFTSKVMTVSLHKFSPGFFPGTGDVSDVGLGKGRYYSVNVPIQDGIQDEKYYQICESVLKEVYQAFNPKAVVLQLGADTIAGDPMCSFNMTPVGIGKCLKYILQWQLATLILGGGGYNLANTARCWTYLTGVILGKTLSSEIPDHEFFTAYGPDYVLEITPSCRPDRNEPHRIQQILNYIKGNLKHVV
- protocol.details: HDAC isoform inhibition assay, HDAC8
measurement.name: IC50 (nM)

{"compound": "COc1ccc2c(OCCCCCCCC(=O)NO)cc(=O)oc2c1 [Compound 11d]", "test.result": 1.85}
{"compound": "COc1ccc2c(NCCCCCCCC(=O)NO)cc(=O)oc2c1 [Compound 10e]", "test.result": 16.9}

----------
- target.of.assay: HDAC5 (Homo sapiens, UniProt Q9UQL6)
- Sequence (Q9UQL6 whole entry, canonical isoform): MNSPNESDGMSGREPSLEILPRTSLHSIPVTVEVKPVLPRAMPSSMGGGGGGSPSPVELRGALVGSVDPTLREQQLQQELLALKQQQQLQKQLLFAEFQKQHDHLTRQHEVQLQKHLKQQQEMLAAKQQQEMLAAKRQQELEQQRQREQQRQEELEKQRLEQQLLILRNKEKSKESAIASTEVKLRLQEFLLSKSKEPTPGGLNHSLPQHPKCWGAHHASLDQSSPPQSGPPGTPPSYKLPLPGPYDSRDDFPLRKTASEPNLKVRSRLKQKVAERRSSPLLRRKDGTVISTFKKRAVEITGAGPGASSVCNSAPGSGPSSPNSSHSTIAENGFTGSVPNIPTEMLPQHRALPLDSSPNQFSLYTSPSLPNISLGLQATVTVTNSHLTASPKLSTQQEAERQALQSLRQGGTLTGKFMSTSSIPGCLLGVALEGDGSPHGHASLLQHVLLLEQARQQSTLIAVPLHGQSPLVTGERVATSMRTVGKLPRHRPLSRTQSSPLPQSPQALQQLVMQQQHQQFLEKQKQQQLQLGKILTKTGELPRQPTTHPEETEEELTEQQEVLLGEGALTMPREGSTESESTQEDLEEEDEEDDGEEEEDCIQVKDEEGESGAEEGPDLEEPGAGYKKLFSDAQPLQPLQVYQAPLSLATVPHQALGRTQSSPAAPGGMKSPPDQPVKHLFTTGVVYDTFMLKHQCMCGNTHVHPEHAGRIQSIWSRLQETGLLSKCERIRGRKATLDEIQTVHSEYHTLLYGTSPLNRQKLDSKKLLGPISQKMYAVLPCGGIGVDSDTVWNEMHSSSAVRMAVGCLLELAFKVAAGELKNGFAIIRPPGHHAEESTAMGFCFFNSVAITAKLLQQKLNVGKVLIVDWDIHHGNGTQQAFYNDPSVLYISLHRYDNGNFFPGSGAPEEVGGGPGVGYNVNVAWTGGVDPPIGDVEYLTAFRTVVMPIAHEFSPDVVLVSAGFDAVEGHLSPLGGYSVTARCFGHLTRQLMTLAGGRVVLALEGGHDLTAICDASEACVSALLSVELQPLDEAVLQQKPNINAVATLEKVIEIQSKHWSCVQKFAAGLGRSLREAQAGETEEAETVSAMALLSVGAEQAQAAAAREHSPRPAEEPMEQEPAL
- protocol.details: HDAC isoform inhibition assay, HDAC5
IC50 values, listed per item
measurement.name: IC50

{"molecule": "COc1ccc2c(NCCCCCCCC(=O)NO)cc(=O)oc2c1 [Compound 10e]", "test.result": "> 1000 nM"}
{"molecule": "COc1ccc2c(OCCCCCCCC(=O)NO)cc(=O)oc2c1 [Compound 11d]", "test.result": "> 1000 nM"}
